Biological target: 5-LO (Homo sapiens)
Construct: incubating a test compound with heparinised human blood, prior to challenge with the calcium ionophore A23187; endogenous in cells; host or cells: heparinised human whole blood (blood cells)
Sequence (P09917 whole entry): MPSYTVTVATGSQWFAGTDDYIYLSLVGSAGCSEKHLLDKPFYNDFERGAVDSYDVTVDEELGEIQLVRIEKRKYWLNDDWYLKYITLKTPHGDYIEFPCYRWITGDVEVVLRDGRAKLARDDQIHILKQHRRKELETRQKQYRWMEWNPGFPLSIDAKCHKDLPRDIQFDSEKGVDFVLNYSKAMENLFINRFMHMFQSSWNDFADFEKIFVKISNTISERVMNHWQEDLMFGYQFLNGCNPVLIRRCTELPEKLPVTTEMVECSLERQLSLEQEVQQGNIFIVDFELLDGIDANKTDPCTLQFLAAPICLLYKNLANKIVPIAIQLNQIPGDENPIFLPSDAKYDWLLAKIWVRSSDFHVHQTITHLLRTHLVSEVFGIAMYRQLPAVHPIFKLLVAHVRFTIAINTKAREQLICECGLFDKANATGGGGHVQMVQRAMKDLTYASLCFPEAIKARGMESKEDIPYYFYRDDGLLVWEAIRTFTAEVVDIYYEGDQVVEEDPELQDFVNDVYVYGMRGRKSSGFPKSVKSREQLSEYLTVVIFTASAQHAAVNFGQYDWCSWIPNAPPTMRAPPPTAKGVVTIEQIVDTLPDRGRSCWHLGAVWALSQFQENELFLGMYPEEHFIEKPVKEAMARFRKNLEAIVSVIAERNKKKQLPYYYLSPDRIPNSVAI
Experiment: Test a): in vitro heparinised human blood challenged with calcium ionophore A23187, radioimmunoassay of LTB₄
Assay type: cell-based
Settings: heparinised human blood, A23187 challenge; read-out: IC₅₀ against LTB₄ in test a)
Measure name: IC50 (nM)
# value in nM; strip the unit string

Asked: IC50 of "COC1(c2cc(F)cc(Sc3ccc(CON=C(C)C)cc3)c2)CCOCC1" on 5-LO (Homo sapiens)?
Given back: 150

Turning to the following compound.
Asked: IC50 of COC1(c2cc(F)cc(Sc3ccc(C(C)ON=C(C)C)cc3)c2)CCOCC1 (centres unmarked) on 5-LO (Homo sapiens)?
Given back: 90
